The reported numbers originate from PubChem BioAssay (NCI).

tested on: LOX IMVI melanoma; experiment: NCI-60 one-dose screen, 48 h; conditions: 10 µM unless noted
The panel holds about 83,000 compounds, 20% with a hit somewhere; the sample as a whole holds those more often. Active and inactive are the calls of the source. How the source made its calls: active means growth percent below 10; inactive means the rest.
Pick from true (active), false (inactive) when you respond.

Example cases with answers are listed next.
# compound, class
rows = [
    ("CCCCCCC/C(=N\\N=C(N)N)c1ccc(O)cc1", "false"),
    ("Oc1ccc(-c2nn(-c3ccccc3)cc2-c2nc3ccccc3s2)cc1", "false"),
    ("Clc1ccccc1[C@@H]1C[C@@H]2Cc3cc(Br)c4ccccc4c3N1O2", "false"),
]

Hey, what did the test say about `COc1ccc2c(c1)[nH]c(=O)c1c3cc(OC)c(OC)cc3cn21` ?
true

Hey, what did the test say about CCN(CC)c1ccc(C(O)C2=CC(=O)c3ccccc3C2=O)cc1 (stereo unspecified) ?
true

Hey, what did the test say about `CCOC(=O)c1c2c(c(C)n1Cc1ccc(OC)cc1)-c1nc(N)ncc1CC2` ?
false

Hey, what did the test say about `C/C(=N/N=C(N)N)c1ccc(Cl)cc1` ?
false

Hey, what did the test say about CC1CC(C)/C(=N/NC(N)=O)C(C(O)CC2CCC(=O)NC2=O)C1 (stereo unspecified) ?
false

Hey, what did the test say about `c1ccc(N2CCN(c3nncc4ccccc34)CC2)nc1` ?
false

Hey, what did the test say about `COc1ccc2[nH]c(-c3ccccc3)cc2c1` ?
false

Hey, what did the test say about `COc1cc2c(cc1OCCCCCn1c(-c3ccc(OCc4ccccc4)cc3)nc3cc(N4CCOCC4)ccc31)N=C[C@@H]1CCCN1C2=O` ?
true
